- Test system: microorganisms
- measurement_notes: Morphology, biofilm and growth disrupting peptides (Table 5)
- Format: cell-based
- Parameters: key: A: Peptide aggregates; B: Less hyphal formation; Clumps; Diffuse clumps and small polyps; F: Diffuse growth; H: Thin; I: Growth inhibition; Microcolony formation; Rippled; Small polyps; Thick; W: Halo formation on top, microlonies on bottom
- test_context: MRSA
measured_parameter: Organism, effect: MRSA

Some solved cases for reference:
substance	result
ALCSVIKAIELGIINVHLQ [PF-366]	MRSA (D)
PF-407: peptide having multiple activities (chain 1 KPKNKKEKTVISYEKLLSMY; chain 2 KPKNKKEKTVISYEKLLSMY; Peptide with targeting and/or antimicrobial activity)	MRSA (C)
PF-051: peptide having multiple activities (RFFNFEIKKSTKVDYVFAHVDLSDV; Peptide with targeting and/or antimicrobial activity)	MRSA (D)
RRGCTERLRRMARRNAWDLYAEHFY [PF-148]	MRSA (C)
PF-378: peptide having multiple activities (chain 1 ESAKSNLNFLMQEEWALFLLL; chain 2 ESAKSNLNFLMQEEWALFLLL; Peptide with targeting and/or antimicrobial activity)	MRSA (M)

Provide the reported Organism, effect: MRSA of each entry below, same order.
1. PF-418: peptide having multiple activities (chain 1 FFLVHFYIRKRKGKVSIFLNYF; chain 2 FFLVHFYIRKRKGKVSIFLNYF; Peptide with targeting and/or antimicrobial activity)
2. PF-025: peptide having multiple activities (LLIIFRLWLELKWKNKK; Peptide with targeting and/or antimicrobial activity)
3. PF-031: peptide having multiple activities (MPHHSTTSSRIVVPAHQSNMASTPNLSITP; Peptide with targeting and/or antimicrobial activity)
4. PF-042: peptide having multiple activities (LLLSYFRYTGALLQSLF; Peptide with targeting and/or antimicrobial activity)
5. PF-373: peptide having multiple activities (chain 1 HFYLLFER; chain 2 HFYLLFER; Peptide with targeting and/or antimicrobial activity)
6. PF-370: peptide having multiple activities (chain 1 VIFLHKESGNLKEIFY; chain 2 VIFLHKESGNLKEIFY; Peptide with targeting and/or antimicrobial activity)

[A]
1: MRSA (D); 2: MRSA (R); 3: MRSA (M); 4: MRSA (R); 5: MRSA (M); 6: MRSA (C)

###

- Tested on: microorganisms
- measurement_notes: Morphology, biofilm and growth disrupting peptides (Table 5)
- Format: cell-based
- Set-up: key: A: Peptide aggregates; B: Less hyphal formation; Clumps; Diffuse clumps and small polyps; F: Diffuse growth; H: Thin; I: Growth inhibition; Microcolony formation; Rippled; Small polyps; Thick; W: Halo formation on top, microlonies on bottom
- test_context: S. pneumoniae
measured_parameter: Organism, effect

substance	result
PF-426: peptide having multiple activities (chain 1 MLQKYTQMISVTKCIITKNKKTQENVDAYN; chain 2 MLQKYTQMISVTKCIITKNKKTQENVDAYN; Peptide with targeting and/or antimicrobial activity)	S. pneumoniae (D)
PF-634: peptide having multiple activities (chain 1 MPKARPVNHNKKKSKITIKSNFTLFYMFNP; chain 2 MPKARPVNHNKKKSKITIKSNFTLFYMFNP; Peptide with targeting and/or antimicrobial activity)	S. pneumoniae (D)

###

- Tested on: microorganisms
- measurement_notes: Morphology, biofilm and growth disrupting peptides (Table 5)
- Assay type: cell-based
- Design: key: A: Peptide aggregates; B: Less hyphal formation; Clumps; Diffuse clumps and small polyps; F: Diffuse growth; H: Thin; I: Growth inhibition; Microcolony formation; Rippled; Small polyps; Thick; W: Halo formation on top, microlonies on bottom
- test_context: P. aeruginosa
measured_parameter: Organism, effect: P. aeruginosa

substance	result
NYAVVSHT [PF-209]	P. aeruginosa (H)
PF-128: peptide having multiple activities (chain 1 GIKVVAARFEEIQFSENFDSIILA; chain 2 GIKVVAARFEEIQFSENFDSIILA; Peptide with targeting and/or antimicrobial activity)	P. aeruginosa (C)
ALCSVIKAIELGIINVHLQ [PF-366]	P. aeruginosa (A)
PF-063: peptide having multiple activities (IAAIIVLVLFQKGLLQIFNWILIQLQ; Peptide with targeting and/or antimicrobial activity)	P. aeruginosa (A)
LSPRPIIVSRRSRADNNNDWSR [PF-143]	P. aeruginosa (C)

Provide the reported Organism, effect: P. aeruginosa of each entry below, same order.
1. VLPFPAIPLSRRRACVAAPRPRSRQRAS [PF-168]
2. PF-355: peptide having multiple activities (chain 1 WIAIGLLLYFSLKNQ; chain 2 WIAIGLLLYFSLKNQ; Peptide with targeting and/or antimicrobial activity)
3. PF-380: peptide having multiple activities (chain 1 KKIIPLITLFVVTLVG; chain 2 KKIIPLITLFVVTLVG; Peptide with targeting and/or antimicrobial activity)

[A]
["P. aeruginosa (H)", "P. aeruginosa (A)", "P. aeruginosa (A)"]

Provide the reported Organism, effect: P. aeruginosa of each entry below, same order.
1. PF-067: peptide having multiple activities (DLIVKVHICFVVKTASGYCYLNKREAQAAI; Peptide with targeting and/or antimicrobial activity)
2. PF-356: peptide having multiple activities (chain 1 VSIKIGAIVIGMIGLMELLTE; chain 2 VSIKIGAIVIGMIGLMELLTE; Peptide with targeting and/or antimicrobial activity)

[A]
1: P. aeruginosa (A); 2: P. aeruginosa (A)

###

- Tested on: microorganisms
- measurement_notes: Targeting peptide binding to target microorganisms (Tables 3, 10, 12)
- test_context: microorganism(s) the targeting peptide binds; binding in aqueous buffers varied with peptide solubility, preferably 1x PBS
measured_parameter: Target(s)

In [3]: df
Out[3]:
                                  substance     result
0  PF-142 (GIDRGCQAAR; Peptide with targeting and/or antimicrobial activity)  S. mutans
1  PF-317 (LILVSDI; Peptide with targeting and/or antimicrobial activity)  S. mutans

###

- Test system: microorganisms
- measurement_notes: Peptide activities: targeting/binding, antimicrobial, growth or phenotype altering (Tables 7, 8)
- Assay type: cell-based
- test_context: peptides having multiple activities
- Description: In certain embodiments, peptides described herein can have multiple activities. Thus for example, a peptide can have both binding/targeting activity and antimicrobial activity. Such peptides can be used, e.g., in a chimeric construct, for any or all of these properties. Thus, for example, a peptide designated “B” in Table 8 can be used as a targeting peptide. If it is also designated G or M it can also be used for antimicrobial activity. Table 8. Peptides Having Multiple Activities. […]
measured_parameter: Activities

substance	result
PF-474: peptide having multiple activities (MHRNLVLVKMEPIPHIMIIANQIGIIIEKA; Peptide with targeting and/or antimicrobial activity)	G B
PF-418: peptide having multiple activities (chain 1 FFLVHFYIRKRKGKVSIFLNYF; chain 2 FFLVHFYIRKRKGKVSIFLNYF; Peptide with targeting and/or antimicrobial activity)	G B
PF-355: peptide having multiple activities (chain 1 WIAIGLLLYFSLKNQ; chain 2 WIAIGLLLYFSLKNQ; Peptide with targeting and/or antimicrobial activity)	G B

###

- Test system: microorganisms
- measurement_notes: Morphology, biofilm and growth disrupting peptides (Table 5)
- Format: cell-based
- Set-up: key: A: Peptide aggregates; B: Less hyphal formation; Clumps; Diffuse clumps and small polyps; F: Diffuse growth; H: Thin; I: Growth inhibition; Microcolony formation; Rippled; Small polyps; Thick; W: Halo formation on top, microlonies on bottom
- test_context: S. pneumoniae
- Description: In certain embodiments peptides that induce alterations in phenotype or other biological activities can also be used as antimicrobial effector moieties.
measured_parameter: Organism, effect

Some solved cases for reference:
substance	assay_system	Organism, effect
PF-607: peptide having multiple activities (chain 1 YIESDPRKFDYIFGAIRDH; chain 2 YIESDPRKFDYIFGAIRDH; Peptide with targeting and/or antimicrobial activity)	microorganisms	S. pneumoniae (R)
PF-439: peptide having multiple activities (chain 1 RVLVLKKFHGIMDGNRNVAVFFVGQ; chain 2 RVLVLKKFHGIMDGNRNVAVFFVGQ; Peptide with targeting and/or antimicrobial activity)	microorganisms	S. pneumoniae (R)
PF-666 (chain 1 PNRRSRPR; chain 2 PNRRSRPR; Peptide with targeting and/or antimicrobial activity)	microorganisms	S. pneumoniae (A)
PF-598: peptide having multiple activities (chain 1 MKFMLEVRNKAISAYKEITRTQI; chain 2 MKFMLEVRNKAISAYKEITRTQI; Peptide with targeting and/or antimicrobial activity)	microorganisms	S. pneumoniae (R)
PF-544: peptide having multiple activities (FGEKQMRSWWKVHWFHP; Peptide with targeting and/or antimicrobial activity)	microorganisms	S. pneumoniae (M)
PF-567: peptide having multiple activities (QQRVKAVDASLSQVSTQVSGAVASA; Peptide with targeting and/or antimicrobial activity)	microorganisms	S. pneumoniae (D)
PF-688 (ARNHAVIPAG; Peptide with targeting and/or antimicrobial activity)	microorganisms	S. pneumoniae (A)
PF-592: peptide having multiple activities (chain 1 IMKNYKYFKLFIVKYALF; chain 2 IMKNYKYFKLFIVKYALF; Peptide with targeting and/or antimicrobial activity)	microorganisms	S. pneumoniae (D)

Would you kindly look at the next entry?
[Q] GET /values?readout=Organism, effect&item= PF-517: peptide having multiple activities (VKPTMTASLISTVC; Peptide with targeting and/or antimicrobial activity)
[A] S. pneumoniae (M)
